The entries below are paired with their reported Avg % Edit.
Tested on: TTR
Experiment: TTR editing in primary human hepatocytes transfected with Spy Cas9 mRNA and sgRNAs (Table 13)
Assay type: cell-based
Details: primary human hepatocytes co-transfected with Spy Cas9 mRNA (SEQ ID NO:2) and sgRNAs, 12.5 nM
Strand notation (5' to 3'): a small letter for the sugar, then the base; units joined by * are phosphorothioate-linked, units joined directly phosphodiester-linked; [ ] holds rarer units or linkages, { } end groups; capitals alone tell only the bases. m = 2'-O-methyl; r = 2'-OH (RNA)
Provide only the numeric value, understood in %.

Solved entries (count: 3):
G000492: TTR sgRNA modified sequence, Human, SEQ ID No. 99; guide sequence of CR003342 (nucleic acid) guide: mC*mU*mU*rCrUrCrUrArCrArCrCrCrArGrGrGrCrArCrGrUrUrUrUrArGrAmGmCmUmAmGmAmAmAmUmAmGmCrArArGrUrUrArArArArUrArArGrGrCrUrArGrUrCrCrGrUrUrArUrCrAmAmCmUmUmGmAmAmAmAmAmGmUmGmGmCmAmCmCmGmAmGmUmCmGmGmUmGmCmU*mU*mU*mU	34.65
G000488: TTR sgRNA modified sequence, Human, SEQ ID No. 95; guide sequence of CR003346 (nucleic acid) guide: mA*mA*mA*rGrUrUrCrUrArGrArUrGrCrUrGrUrCrCrGrGrUrUrUrUrArGrAmGmCmUmAmGmAmAmAmUmAmGmCrArArGrUrUrArArArArUrArArGrGrCrUrArGrUrCrCrGrUrUrArUrCrAmAmCmUmUmGmAmAmAmAmAmGmUmGmGmCmAmCmCmGmAmGmUmCmGmGmUmGmCmU*mU*mU*mU	49.40
G000568: TTR sgRNA modified sequence, Human, SEQ ID No. 110; guide sequence of CR003391 (nucleic acid) guide: mG*mG*mC*rUrGrUrCrGrUrCrArCrCrArArUrCrCrCrArGrUrUrUrUrArGrAmGmCmUmAmGmAmAmAmUmAmGmCrArArGrUrUrArArArArUrArArGrGrCrUrArGrUrCrCrGrUrUrArUrCrAmAmCmUmUmGmAmAmAmAmAmGmUmGmGmCmAmCmCmGmAmGmUmCmGmGmUmGmCmU*mU*mU*mU	43.75

**Q:** Request the reported Avg % Edit associated with G000481: TTR sgRNA modified sequence, Human, SEQ ID No. 88; guide sequence of CR003345 (nucleic acid) guide: mU*mC*mU*rArGrArArCrUrUrUrGrArCrCrArUrCrArGrGrUrUrUrUrArGrAmGmCmUmAmGmAmAmAmUmAmGmCrArArGrUrUrArArArArUrArArGrGrCrUrArGrUrCrCrGrUrUrArUrCrAmAmCmUmUmGmAmAmAmAmAmGmUmGmGmCmAmCmCmGmAmGmUmCmGmGmUmGmCmU*mU*mU*mU
**A:** 34.30

Data provenance: patent US11795460B2
